assay: shake flask on a mixture of 185; loss from the water phase only; LC-Orbitrap peak areas; conditions: room
log partition 1-octanol / HPLC water, unbuffered, traces of methanol / DMSO of 1 log10 or higher: y. Under 1 log10: n.

• CCOc1ccc2[nH]cc(C(=O)NCc3ccccc3)c(=O)c2n1 = y
• CN(C1CCCCC1)S(=O)(=O)c1ccccc1N = y
• O=C(O)c1ccccc1C(c1ccc(O)cc1)c1ccc(O)cc1 = n
• Cn1cnc([N+](=O)[O-])c1Sc1ncnc2nc[nH]c12 = n
• Nc1ccc(/N=N/c2ccccc2)cc1 = y
• CCCN(CCC)c1c([N+](=O)[O-])cc(C(C)C)cc1[N+](=O)[O-] = y
